Biological target: hGALK1m (Homo sapiens, UniProt P51570, E253A/K252A)
Construct: made in house; host or cells: E. coli HMS174
Sequence (P51570 whole entry K252A/E253A): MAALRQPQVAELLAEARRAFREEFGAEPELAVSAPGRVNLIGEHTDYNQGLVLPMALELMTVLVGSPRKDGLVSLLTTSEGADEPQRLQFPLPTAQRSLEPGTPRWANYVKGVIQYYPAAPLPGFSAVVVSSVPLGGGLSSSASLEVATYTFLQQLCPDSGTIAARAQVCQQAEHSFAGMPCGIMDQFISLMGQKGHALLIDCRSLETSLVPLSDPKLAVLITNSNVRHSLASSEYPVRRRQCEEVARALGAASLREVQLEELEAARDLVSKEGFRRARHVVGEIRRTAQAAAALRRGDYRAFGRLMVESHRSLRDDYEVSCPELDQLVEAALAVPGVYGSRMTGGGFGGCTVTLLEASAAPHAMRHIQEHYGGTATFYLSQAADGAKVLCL
Assay: in vitro hGALK1 activity assay of the structure-based optimisation (Example 12, Tables 17-20)
Format: biochemical
Conditions: Tables 18-19; read-out: Max Response (%)
reported-metric: Emax (%)

CC1=C(C(=O)Nc2cc(C(=O)O)ccn2)C(c2cccc(S(N)(=O)=O)c2)N=C(Nc2nc3ccc(F)cc3o2)N1 (centres unmarked) :: 75
CC1=C(C(=O)Nc2cc(C(=O)O)ccn2)C(c2ccc(F)cc2Cl)N=C(Nc2nc3ccc(F)cc3o2)N1 (centres unmarked) :: 100
CC1=C(C(=O)Nc2cc(C(=O)O)ccn2)C(c2ccc(C)cc2Cl)N=C(Nc2nc3ccc(F)cc3o2)N1 (racemic) :: 100
CC1=C(C(=O)Nc2cc(C(=O)O)ccn2)C(c2ccccc2Cl)N=C(Nc2nc3cccc(Cl)c3o2)N1 (centres unmarked) :: 100
CC1=C(C(=O)Nc2cc(C(=O)O)ccn2)C(c2ccc(Cl)cc2Cl)N=C(Nc2nc3ccc(F)cc3o2)N1 (centres unmarked) :: 85
CC1=C(C(=O)Nc2cc(C(=O)O)ccn2)C(c2ccccc2Cl)N=C(Nc2nc3cccc(C)c3o2)N1 (centres unmarked) :: 100
CC1=C(C(=O)Nc2cc(C(=O)O)ccn2)C(c2cccc(C(F)(F)F)c2)N=C(Nc2nc3ccc(F)cc3o2)N1 (centres unmarked) :: 90
CC1=C(C(=O)Nc2cc(C(=O)O)ccn2)C(c2ccccc2Br)N=C(Nc2nc3ccc(F)cc3o2)N1 (centres unmarked) :: 100
CC1=C(C(=O)Nc2ccccc2)C(c2ccccc2Cl)N=C(Nc2nc3ccccc3o2)N1 (centres unmarked) :: 100
CC1=C(C(=O)Nc2cc(C(=O)O)ccn2)C(c2ccccc2Cl)N=C(Nc2nc3c(F)cccc3o2)N1 (centres unmarked) :: 100
CC1=C(C(=O)Nc2cc(C(=O)O)ccn2)C(c2cccc(Cl)c2Cl)N=C(Nc2nc3ccc(F)cc3o2)N1 (centres unmarked) :: 100
COc1ccc(C2N=C(Nc3nc4ccc(F)cc4o3)NC(C)=C2C(=O)Nc2cc(C(=O)O)ccn2)c(Cl)c1 (racemic) :: 100
CC1=C(C(=O)Nc2cc(C(=O)O)ccn2)C(c2ccccc2Cl)N=C(Nc2nc3cc(C)ccc3o2)N1 (centres unmarked) :: 100
CC1=C(C(=O)Nc2cc(C(=O)O)ccn2)C(c2ccccc2Cl)N=C(Nc2nc3cccc(C(F)(F)F)c3o2)N1 (centres unmarked) :: 100

====

Experiment: rat microsomal stability (RLM)
Conditions: microsomal stability half-life
Recorded Metab. Stabil. (m) values for a group of molecules are listed next.
reported-metric: Metab. Stabil. (m)

CC1=C(C(=O)Nc2cccnc2)C(c2ccccc2Cl)N=C(Nc2nc3ccccc3o2)N1 (stereo not shown) [Compound 149] :: 20
CCn1cc(CNC(=O)C2=C(C)NC(Nc3nc4ccc(F)c(N)c4o3)=NC2c2ccc(C)cc2Cl)cn1 (racemic) [Compound 125] :: 14.08
COC(=O)Cc1nnc(NC(=O)C2=C(C)NC(Nc3nc4ccccc4o3)=NC2c2ccccc2Cl)s1 (stereo not shown) [Compound 174] :: 8.0854
COc1ccccc1CNC(=O)C1=C(C)NC(Nc2nc3ccccc3o2)=NC1c1ccccc1Cl (stereo not shown) [Compound 215] :: 1.4
COP(=O)(OC)C1=C(C)NC(Nc2nc3ccccc3o2)=NC1c1ccccc1Cl (stereo not shown) [Compound 242] :: 5.35
CC1=C(C(=O)Nc2cccc(CCO)c2)C(c2ccccc2Cl)N=C(Nc2nc3ccccc3o2)N1 (stereo not shown) [Compound 201] :: 26.59
COC(=O)c1ccnc(NC(=O)C2=C(C)NC(Nc3nc4ccccc4o3)=N[C@@H]2c2ccccc2Cl)c1 [Compound 207] :: 25.55
COC(=O)C1=C(C(F)(F)F)NC(Nc2nc3ccccc3o2)=NC1c1ccccc1Cl (stereo not shown) [Compound 241] :: 10.46
CCOC(=O)c1nnc(NC(=O)C2=C(C)NC(Nc3nc4ccccc4o3)=NC2c2ccccc2Cl)s1 (stereo not shown) [Compound 168] :: 3.158
